Attribute: inhibition at 10 µM
# Tested on: SW-620
# assayProtocol: NCI 60 antitumor screening (single dose / five doses)
# Type: cell-based, human
# protocolConditions: Homo sapiens, SW-620, read-out: Growth inhibition percentage (GI %)
Use % as the unit, but write only the number.

The cases that follow already have their inhibition at 10 µM on record.
structureNotation: O=[N+]([O-])c1cc(/C=N/Nc2nc(N/N=C/c3ccc(Cl)c([N+](=O)[O-])c3)nc(N3CCCCC3)n2)ccc1Cl
quantityUnit: %
inhibition at 10 µM: 36.3
//
structureNotation: O=[N+]([O-])c1cccc(/C=N/Nc2nc(N/N=C/c3cccc([N+](=O)[O-])c3)nc(N3CCOCC3)n2)c1
quantityUnit: %
inhibition at 10 µM: 18.4
//
structureNotation: C/C(=N\Nc1nc(N/N=C(\C)c2ccc([N+](=O)[O-])cc2)nc(N2CCOCC2)n1)c1ccc([N+](=O)[O-])cc1
quantityUnit: %
inhibition at 10 µM: 4.48
//
structureNotation: O=[N+]([O-])c1cccc(/C=N/Nc2nc(N/N=C/c3cccc([N+](=O)[O-])c3)nc(N3CCCCC3)n2)c1
quantityUnit: %
inhibition at 10 µM: 16.5

Turning to the following compound.
Task: Name the reported inhibition at 10 µM value associated with the compound O=[N+]([O-])c1cc(/C=N/Nc2nc(N/N=C/c3ccc(Cl)c([N+](=O)[O-])c3)nc(N3CCOCC3)n2)ccc1Cl
Result: -6.94

----------
# System: NCI/ADR-RES
# assayProtocol: NCI 60 antitumor screening (single dose / five doses)
# Type: cell-based
# protocolConditions: Homo sapiens; NCI/ADR-RES, five doses (0.01–100 μM); read-out: GI50
Attribute: GI50
Use µM as the unit, but write only the number.

compound: Clc1cccc(/C=N/Nc2nc(N/N=C/c3cccc(Cl)c3)nc(N3CCOCC3)n2)c1 [compound 6d]
quantityUnit: µM
reportedMeasurement: 4.58
--
compound: CN(C)c1ccc(/C=N/Nc2nc(N/N=C/c3ccc(N(C)C)cc3)nc(N3CCCCC3)n2)cc1 [compound 7g]
quantityUnit: µM
reportedMeasurement: 3.19
--
compound: Fc1cccc(Cl)c1/C=N/Nc1nc(N/N=C/c2c(F)cccc2Cl)nc(N2CCCCC2)n1 [compound 7l]
quantityUnit: µM
reportedMeasurement: 2.76
--
compound: Oc1ccccc1/C=N/Nc1nc(N/N=C/c2ccccc2O)nc(N2CCOCC2)n1 [compound 6a]
quantityUnit: µM
reportedMeasurement: 0.69

Task: Name the reported GI50 value associated with the compound Brc1cccc(/C=N/Nc2nc(N/N=C/c3cccc(Br)c3)nc(N3CCOCC3)n2)c1 [compound 6c]
Result: 3.25

----------
Attribute: inhibition at 10 µM
# System: MCF7
# assayProtocol: NCI 60 antitumor screening (single dose)
# Assay type: cell-based
# protocolConditions: Homo sapiens; MCF7 (breast cancer), single dose 10 μM; read-out: Growth inhibition percentage (GI %)
Use % as the unit, but write only the number.

The cases that follow already have their inhibition at 10 µM on record.
structureNotation: Brc1ccccc1/C=N/Nc1nc(N/N=C/c2ccccc2Br)nc(N2CCOCC2)n1
assayedSystem: MCF7
inhibition at 10 µM (%): 14.8
--
structureNotation: Clc1cccc(/C=N/Nc2nc(N/N=C/c3cccc(Cl)c3)nc(N3CCOCC3)n2)c1
assayedSystem: MCF7
inhibition at 10 µM (%): 57

Task: Name the reported inhibition at 10 µM value associated with the compound Fc1cccc(/C=N/Nc2nc(N/N=C/c3cccc(F)c3)nc(N3CCOCC3)n2)c1
Result: 19.3
